In this section, each of the binders is paired with its reported ELISA OD.
molecular target: rat MCP-1 (rat, UniProt P14844 24-148); assay: ELISA, coated antigen
Sequence (P14844 24-148 limits assumed): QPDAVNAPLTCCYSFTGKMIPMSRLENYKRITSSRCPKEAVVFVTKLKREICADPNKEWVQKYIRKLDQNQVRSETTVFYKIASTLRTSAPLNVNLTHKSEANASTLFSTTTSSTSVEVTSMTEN
A bare number is not enough; add the unit after it.

Form field ELISA OD, entry anti-MCP-1 mAb 1.4.1 (antibody, V domains shown) VH: QSGPGLVKPSQTLSLTCAISGDSVSSNSAAWNWIRQSPSRGLEWLGRTYYRSKWYSDHAVSVRSRITIYPDTSKNQFSLQLNSVTPEDTAVYYCARDRISGTYVGMDVWGQGTTVTVSS VL: DIGMTQTPLSLSVTPGQPASISCKSSQSLLYSDGKTYLYWYLQKPGQPPQHLIYEVSNRFSGVPDRFSGSGSGTDFTLKISRVEADDVGVYYCMQTIHLPLTFGGGTKVEIQR : 0.05 OD450

Briefly, ELISA OD measured for anti-MCP-1 mAb 5.1 (antibody, V domains shown) VH: EQSGGGVVQPGRSLRLSCAASGFTFSSYGMHWVRQAPGKGLEWVAVIWYDGNNKYYADSVKGRFTISRDTSKNTLYLQMNSLRAEDTAVYYCARDSSSYYYYGMDVWGQGTTVTVSS VL: NFMLTQPHSVSESPGKTVTISCTRSSGSIASNYVQWFQQRPGSSPTTVIYEDDQRPSGVPDRFCGSIDSSSNSASLTISGLRTEDEADYYCQSYDSSNHVVFGGGTKLTVLG : 0.054 OD450

Form: binder = anti-MCP-1 mAb 2.4.1 (antibody, V domains shown) VH: QVQLVQSGAEVKKPGASVKVSCKASGYTFTGYYLHWVRQAPGQGLEWMGWINPYNDGTNYAQKFQGRVTMTRDTSISTAYMELSRLRSDDTAVYYCARDIAAAGAVYFDYWGQGTLVTVSS VL: DIQMTQSPSSLSASVGDRVTITCQASQDITTYLNWYQQKPGKAPKLLIYDASNLETGVPSRFSGSGSGTDFTFTISSLQPEDIATYYCQQYDNLPITFGQGTRLEIKR ; ELISA OD = 0.077 OD450
